B1: ZNF449 (parent)
chain: YRHQRLHTGERPYECTVCKKRFTR

- Variants of: B1
- assay.overview: protein stability index of a GFP-peptide fusion (GPS, HEK-293T) (PSI 1-6); higher = more stable;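 note: lentivirally expressed fusions sorted by FACS into six bins by GFP to DsRed ratio, PSI derived from sequencing read proportions per bin multiplied by bin number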
- conditions.used: c terminus: a fixed tail appended
assay.metric: protein stability index

- mutant.designation: "R21W"
  assay.metric: "protein stability index"
  reading: 2.18
- mutant.designation: "T8I"
  assay.metric: "protein stability index"
  reading: 2.41
- mutant.designation: "R11Q"
  assay.metric: "protein stability index"
  reading: 2.48
- mutant.designation: "K19W"
  assay.metric: "protein stability index"
  reading: 2.07
- mutant.designation: "R21Q"
  assay.metric: "protein stability index"
  reading: 1.98
- mutant.designation: "E10H"
  assay.metric: "protein stability index"
  reading: 2.88
- mutant.designation: "P12V"
  assay.metric: "protein stability index"
  reading: 2.87
- mutant.designation: "G9M"
  assay.metric: "protein stability index"
  reading: 2.25
- mutant.designation: "Q4K"
  assay.metric: "protein stability index"
  reading: 2.39
- mutant.designation: "C15A"
  assay.metric: "protein stability index"
  reading: 3.02
- mutant.designation: "Y1C"
  assay.metric: "protein stability index"
  reading: 3.93
- mutant.designation: "K19C"
  assay.metric: "protein stability index"
  reading: 2.12
- mutant.designation: "E10P"
  assay.metric: "protein stability index"
  reading: 2.58
- mutant.designation: "R11T"
  assay.metric: "protein stability index"
  reading: 2.1
- mutant.designation: "K20L"
  assay.metric: "protein stability index"
  reading: 1.73
- mutant.designation: "C18F"
  assay.metric: "protein stability index"
  reading: 2.38
- mutant.designation: "K19E"
  assay.metric: "protein stability index"
  reading: 2.01
- mutant.designation: "T8W"
  assay.metric: "protein stability index"
  reading: 2.39
- mutant.designation: "C15K"
  assay.metric: "protein stability index"
  reading: 3.42
- mutant.designation: "F22M"
  assay.metric: "protein stability index"
  reading: 2.48
- mutant.designation: "R24F"
  assay.metric: "protein stability index"
  reading: 2.57
- mutant.designation: "R21G"
  assay.metric: "protein stability index"
  reading: 1.96
- mutant.designation: "V17E"
  assay.metric: "protein stability index"
  reading: 2.37
- mutant.designation: "V17M"
  assay.metric: "protein stability index"
  reading: 2.21
- mutant.designation: "R11M"
  assay.metric: "protein stability index"
  reading: 1.79
- mutant.designation: "C15E"
  assay.metric: "protein stability index"
  reading: 3.35
- mutant.designation: "T23A"
  assay.metric: "protein stability index"
  reading: 2.93
- mutant.designation: "T8K"
  assay.metric: "protein stability index"
  reading: 2.19
- mutant.designation: "L6A"
  assay.metric: "protein stability index"
  reading: 2.77
- mutant.designation: "V17C"
  assay.metric: "protein stability index"
  reading: 2.65
- mutant.designation: "Y1T"
  assay.metric: "protein stability index"
  reading: 2.65
- mutant.designation: "F22T"
  assay.metric: "protein stability index"
  reading: 2.41
- mutant.designation: "R2A"
  assay.metric: "protein stability index"
  reading: 1.81
- mutant.designation: "G9K"
  assay.metric: "protein stability index"
  reading: 2.42
- mutant.designation: "H3P"
  assay.metric: "protein stability index"
  reading: 2.68
- mutant.designation: "Q4L"
  assay.metric: "protein stability index"
  reading: 1.78
- mutant.designation: "Y1H"
  assay.metric: "protein stability index"
  reading: 2.98
- mutant.designation: "R24Y"
  assay.metric: "protein stability index"
  reading: 2.1

Reference source: the supplement of paper PMC10567573
